Molecular target: HLA-A*11:01 (human)
Assay: REVEAL MHC-peptide binding assay, recombinant HLA-A*11:01
Settings: remark: other sources report otherwise
endpoint: In Vitro Score (% of positive control peptide)

binder	endpoint_value
IIFWVKRGA [… (SEQ ID NO: 69)]	22.6
IFWVQRGRK [… (SEQ ID NO: 54)]	128
AFIIFWVHR [… (SEQ ID NO: 38)]	34.9
FIIFWVHRG [… (SEQ ID NO: 39)]	0.9
IFWVQRGAK [… (SEQ ID NO: 82)]	61.3
AFIIFWVSR [… (SEQ ID NO: 24)]	54
IIFWVKRGL [… (SEQ ID NO: 61)]	32.4
WVKRGAKKL [… (SEQ ID NO: 72)]	4.6

[1] IFWVARGRK [… (SEQ ID NO: 47)]
[2] WVQRGNKKL [… (SEQ ID NO: 88)]
Identify the item whose In Vitro Score (% of positive control peptide) is the smaller number: 1 or 2 Respond with the label that goes with your answer.
2

[a] IIFWVQRGR [… (SEQ ID NO: 53)]
[b] IFWVHRGRK [… (SEQ ID NO: 41)]
[c] WVKRGHKKL [… (SEQ ID NO: 68)]
Highest In Vitro Score (% of positive control peptide) first, then in falling order down to the smallest. Record the ranking as a list of labels in the requested order.
a, b, c
(a: 72.8, b: 36.6, c: 2.8)

[1] IFWVQRGNK [… (SEQ ID NO: 86)]
[2] IFWVKRGHK [… (SEQ ID NO: 66)]
Identify the item whose In Vitro Score (% of positive control peptide) is the smaller number: 1 or 2 Respond with the label that goes with your answer.
2
(2: 30.9, 1: 67.5)
